Hey, just so you know, these numbers are from patent US9296728B2.

- TEST_SUMMARY: Pharmacokinetic study of Compound 20 in ICR mice
- Format: in vivo
- RUN_CONDITIONS: male, ICR, mouse, plasma, ip, 100 mg/kg, 100 mg/kg i.p., 1 h, read-out: Plasma Concentration, individual animals (1#, 2#, 3#)
REPORTED_PROPERTY: concentration at 1 h (ng/mL)
Numeric answer only, unit ng/mL assumed.

Input: concentration at 1 h lookup needed for COc1cc(N(c2ccccc2)c2ccccc2)ccc1/C=C(\C#N)C(=O)O , thanks.
Output: 31800

====

- TEST_SUMMARY: Pharmacokinetic study of Compound 20 in ICR mice
- Type: in vivo
- RUN_CONDITIONS: male, ICR, mouse, plasma, ip, 100 mg/kg, 100 mg/kg i.p., 2 h, n = 3, read-out: Plasma Concentration, Mean
- Protocol: 60 male ICR mice were split into two groups of 30. In each group the mice were prescribed Compound 20 at a dosage of 100 mg/kg. This dose was administered orally in group 1 and intraperitoneally in group 2. Each group of 30 mice was subdivided into groups of 3 mice. […] Plasma and Brain samples were centrifuged at 15777×g for 5 minutes, and 180 ul of supernatant was placed in a 96-well assay plate. […] 5 ul aliquots of each well were then analyzed using LC-MS/MS. […]
REPORTED_PROPERTY: concentration at 2 h (ng/mL)
Numeric answer only, unit ng/mL assumed.

Input: concentration at 2 h lookup needed for COc1cc(N(c2ccccc2)c2ccccc2)ccc1/C=C(\C#N)C(=O)O , thanks.
Output: 35200
